Molecular target: Recombinant GST-Tie2 (Homo sapiens)
Sequence (Q02763 23-1124): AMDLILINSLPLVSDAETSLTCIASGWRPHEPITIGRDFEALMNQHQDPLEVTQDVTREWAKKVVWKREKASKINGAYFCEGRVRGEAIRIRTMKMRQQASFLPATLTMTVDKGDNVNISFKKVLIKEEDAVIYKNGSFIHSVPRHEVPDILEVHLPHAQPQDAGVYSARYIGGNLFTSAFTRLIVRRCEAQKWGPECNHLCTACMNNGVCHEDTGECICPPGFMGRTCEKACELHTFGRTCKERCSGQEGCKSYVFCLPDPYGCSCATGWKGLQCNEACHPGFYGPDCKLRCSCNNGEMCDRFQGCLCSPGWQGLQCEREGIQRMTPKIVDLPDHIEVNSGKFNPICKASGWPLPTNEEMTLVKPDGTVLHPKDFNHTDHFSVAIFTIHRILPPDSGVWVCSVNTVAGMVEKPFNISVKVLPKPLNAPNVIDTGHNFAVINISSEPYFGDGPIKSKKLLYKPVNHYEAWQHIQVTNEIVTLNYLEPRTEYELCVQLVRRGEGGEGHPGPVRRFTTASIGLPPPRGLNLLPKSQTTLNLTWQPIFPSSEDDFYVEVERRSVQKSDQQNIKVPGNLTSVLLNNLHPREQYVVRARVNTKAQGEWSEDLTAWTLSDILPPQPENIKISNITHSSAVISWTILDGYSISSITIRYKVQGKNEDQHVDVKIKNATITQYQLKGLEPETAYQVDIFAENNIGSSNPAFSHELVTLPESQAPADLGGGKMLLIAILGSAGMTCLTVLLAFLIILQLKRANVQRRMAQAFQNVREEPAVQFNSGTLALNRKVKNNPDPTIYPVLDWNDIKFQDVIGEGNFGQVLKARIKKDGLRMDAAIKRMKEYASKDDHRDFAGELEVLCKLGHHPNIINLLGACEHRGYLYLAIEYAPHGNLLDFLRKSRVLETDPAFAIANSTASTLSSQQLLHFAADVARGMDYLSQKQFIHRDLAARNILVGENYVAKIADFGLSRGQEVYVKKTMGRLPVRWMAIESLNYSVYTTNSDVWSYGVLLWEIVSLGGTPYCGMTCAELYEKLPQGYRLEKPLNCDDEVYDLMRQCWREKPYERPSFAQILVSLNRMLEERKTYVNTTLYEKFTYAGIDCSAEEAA
Test: Tie2 fluorescence polarization kinase activity assay (TIE2-FP)
Settings: activated Tie2, 200 μM ATP, peptide substrate
pIC50: −log10 of the molar value.
assay-endpoint: pIC50

> print(dat)
                               entry.smiles  observed.result
1  CN(c1ccc2c(c1)nc(NC(=O)Cc1ccccc1Cl)n2C)c1ccnc(Nc2ccc(CS(C)(=O)=O)cc2)n1     5.00 to 6.00
2  CN(c1ccc2c(c1)nc(NC(=O)C1(c3cc(F)ccc3F)CC1)n2C)c1ccnc(Nc2ccc(CS(C)(=O)=O)cc2)n1     5.00 to 6.00
3  CN(c1ccc2c(c1)nc(Nc1cc(C(F)(F)F)ccc1F)n2C)c1ccnc(Nc2ccc(CS(C)(=O)=O)cc2)n1           > 7.00

* * *

Target: GST-VEGFR2 (Homo sapiens)
Construct: baculovirus expressed recombinant constructs of the intracellular domains of human TIE2 tagged by GST
Sequence (P35968 786-1356 limits assumed): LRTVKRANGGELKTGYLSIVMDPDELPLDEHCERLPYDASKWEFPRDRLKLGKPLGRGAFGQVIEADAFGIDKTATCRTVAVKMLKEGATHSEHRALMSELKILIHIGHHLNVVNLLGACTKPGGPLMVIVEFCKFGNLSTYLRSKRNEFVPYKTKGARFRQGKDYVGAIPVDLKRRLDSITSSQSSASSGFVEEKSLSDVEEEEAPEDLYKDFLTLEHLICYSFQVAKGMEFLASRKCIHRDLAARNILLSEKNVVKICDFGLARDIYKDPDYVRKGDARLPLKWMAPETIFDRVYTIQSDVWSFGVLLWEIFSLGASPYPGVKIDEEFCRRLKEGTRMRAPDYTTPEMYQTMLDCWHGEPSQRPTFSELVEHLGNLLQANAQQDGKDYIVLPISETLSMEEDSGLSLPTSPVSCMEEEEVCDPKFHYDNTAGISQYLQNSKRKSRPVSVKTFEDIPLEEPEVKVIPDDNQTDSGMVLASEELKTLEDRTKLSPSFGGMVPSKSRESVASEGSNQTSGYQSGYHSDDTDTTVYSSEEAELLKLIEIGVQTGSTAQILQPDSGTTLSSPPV
Test: VEGF-R2 enzyme assay (VEGF-E), LANCE method
Conditions: GST-VEGFR2, 75 uM ATP, biotinylated peptide
Counter-ions that a name gives are not always drawn.
Measured IC50 accompanies every entry in the list below.
assay-endpoint: IC50

> print(dat)
                                    compound                        tgt  assay.endpoint  observed.result
 1  CNc1nc2cc(N(C)c3ccnc(Nc4ccc(CS(C)(=O)=O)cc4)n3)ccc2n1C [Example 3, hydrochloride]  GST-VEGFR2 (Homo sapiens)            IC50         < 100 nM
 2  CN(c1ccc2c(c1)nc(NC(=O)Cc1cccs1)n2C)c1ccnc(Nc2ccc(CS(C)(=O)=O)cc2)n1  GST-VEGFR2 (Homo sapiens)            IC50         < 100 nM
 3  CN(c1ccc2c(c1)nc(Nc1ccccc1)n2C)c1ccnc(Nc2ccc(CS(C)(=O)=O)cc2)n1  GST-VEGFR2 (Homo sapiens)            IC50         < 100 nM
 4  CN(c1ccc2c(c1)nc(NC(=O)C1(c3cc(F)ccc3F)CC1)n2C)c1ccnc(Nc2ccc(CS(C)(=O)=O)cc2)n1  GST-VEGFR2 (Homo sapiens)            IC50   100 to 1000 nM
 5  CC(C)Nc1nc2cc(N(C)c3ccnc(Nc4cccc(OS(C)(=O)=O)c4)n3)ccc2n1C [Example 92, hydrochloride]  GST-VEGFR2 (Homo sapiens)            IC50   100 to 1000 nM
 6  CN(c1ccc2c(c1)nc(NC(=O)Cc1ccccc1Cl)n2C)c1ccnc(Nc2ccc(CS(C)(=O)=O)cc2)n1  GST-VEGFR2 (Homo sapiens)            IC50         < 100 nM
 7  CONS(=O)(=O)c1cc(Nc2nccc(N(C)c3ccc4c(c3)nc(NCc3ccccc3)n4C)n2)ccc1C  GST-VEGFR2 (Homo sapiens)            IC50         < 100 nM
 8  CN(c1ccc2c(c1)nc(Nc1ccccc1F)n2C)c1ccnc(Nc2ccc(CS(C)(=O)=O)cc2)n1  GST-VEGFR2 (Homo sapiens)            IC50         < 100 nM
 9  CN(c1ccc2c(c1)nc(NCc1ccccc1)n2C)c1ccnc(Nc2ccc(CS(C)(=O)=O)cc2)n1 [Example 4, hydrochloride]  GST-VEGFR2 (Homo sapiens)            IC50         < 100 nM
10  CN(c1ccc2c(c1)nc(NC(=O)Cc1cccc(F)c1F)n2C)c1ccnc(Nc2ccc(CS(C)(=O)=O)cc2)n1  GST-VEGFR2 (Homo sapiens)            IC50         < 100 nM
11  CN(c1ccc2c(c1)nc(NC(=O)Cc1ccc(F)cc1)n2C)c1ccnc(Nc2ccc(CS(C)(=O)=O)cc2)n1  GST-VEGFR2 (Homo sapiens)            IC50         < 100 nM
12  CN(c1ccc2c(c1)nc(NC(=O)C1(c3ccc(Cl)c(Cl)c3)CC1)n2C)c1ccnc(Nc2cccc(CS(C)(=O)=O)c2)n1  GST-VEGFR2 (Homo sapiens)            IC50   100 to 1000 nM
13  CN(c1ccc2c(c1)nc(NC(=O)Nc1ccccc1)n2C)c1ccnc(Nc2ccc(CS(C)(=O)=O)cc2)n1  GST-VEGFR2 (Homo sapiens)            IC50         < 100 nM
14  Cn1c(Nc2cc(C(C)(C)C)on2)nc2cc(Nc3ccnc(Nc4cccc(CS(C)(=O)=O)c4)n3)ccc21  GST-VEGFR2 (Homo sapiens)            IC50         < 100 nM
